The reported measurements were obtained from patent US20260167619A2.

Consider the following molecules; for each one, report its pIC50.
measurement target: EGFR(Dell9_T790M_C797S) (aa 669-1210, in house) (Homo sapiens, UniProt P00533, T790M/C797S, form not given)
Sequence (P00533 with tags, fused parts or gaps DEL746-750/T790M/C797S, form open): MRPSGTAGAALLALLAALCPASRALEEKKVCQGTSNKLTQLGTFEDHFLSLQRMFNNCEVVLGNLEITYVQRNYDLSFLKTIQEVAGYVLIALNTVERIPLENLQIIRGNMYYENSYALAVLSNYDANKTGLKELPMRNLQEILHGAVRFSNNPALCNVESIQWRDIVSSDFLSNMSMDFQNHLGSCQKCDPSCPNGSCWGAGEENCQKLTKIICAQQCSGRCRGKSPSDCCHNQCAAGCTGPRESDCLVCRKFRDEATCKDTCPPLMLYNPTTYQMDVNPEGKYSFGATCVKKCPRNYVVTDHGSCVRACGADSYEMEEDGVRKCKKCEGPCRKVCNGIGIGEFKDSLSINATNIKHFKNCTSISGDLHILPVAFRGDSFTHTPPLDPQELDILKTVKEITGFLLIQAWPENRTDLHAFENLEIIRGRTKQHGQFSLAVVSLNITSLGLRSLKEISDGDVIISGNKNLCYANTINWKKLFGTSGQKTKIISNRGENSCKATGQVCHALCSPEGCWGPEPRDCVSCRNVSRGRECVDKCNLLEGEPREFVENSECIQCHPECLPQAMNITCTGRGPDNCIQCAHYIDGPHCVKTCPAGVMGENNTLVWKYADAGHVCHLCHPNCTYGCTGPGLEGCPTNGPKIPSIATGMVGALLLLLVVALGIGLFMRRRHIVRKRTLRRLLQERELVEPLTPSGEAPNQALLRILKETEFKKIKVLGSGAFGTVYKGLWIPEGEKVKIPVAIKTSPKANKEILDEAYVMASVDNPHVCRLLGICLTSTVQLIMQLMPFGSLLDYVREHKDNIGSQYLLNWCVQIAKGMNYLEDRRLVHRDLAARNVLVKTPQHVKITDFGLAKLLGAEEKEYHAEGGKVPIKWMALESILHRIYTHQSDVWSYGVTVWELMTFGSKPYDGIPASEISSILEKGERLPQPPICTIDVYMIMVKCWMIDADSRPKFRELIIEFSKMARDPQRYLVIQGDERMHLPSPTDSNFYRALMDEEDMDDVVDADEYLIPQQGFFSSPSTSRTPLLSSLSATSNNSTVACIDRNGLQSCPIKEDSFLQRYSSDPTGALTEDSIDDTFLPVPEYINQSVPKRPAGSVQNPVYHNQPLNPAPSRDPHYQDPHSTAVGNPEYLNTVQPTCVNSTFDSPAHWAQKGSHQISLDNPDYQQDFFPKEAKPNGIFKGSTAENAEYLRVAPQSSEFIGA
measurement notes: Biochemical EGFR inhibition assay (TR-FRET), Del19/T790M/C797S mutant
test conditions: ATP at Km, 15 min pre-incubation, 60 min reaction; read-out: Del_TM_CS (Km ATP) IC50
Method: Compounds were tested for inhibition of kinase activity against EGFR (aa668-1210, Invitrogen), EGFR(L858R_T790M_C797S) (aa695-end, Invitrogen) and EGFR(Dell9_T790M_C797S) (aa 669-1210, in house) in assays based on time-resolved fluorescence-resonance energy transfer (TR-FRET) methodology. […] The residual enzyme activity in presence of increasing concentrations of compounds was calculated based on the ratio of fluorescence at 665 nm to that at 620 nm. […]
In simple prose, pIC50 is minus the logarithm base ten of a concentration in moles per litre.

Entry COc1cc(N2CCC(N3CCN(C)CC3)CC2)ccc1Nc1ncc(Cl)c(Nc2ccc(C)c3c2N(S(C)(=O)=O)CC3)n1 ; pIC50 = 9.77

Entry COc1cc(N2CCC(N3CCN(C)CC3)CC2)ccc1Nc1ncc(F)c(Nc2cccc3c2N(S(C)(=O)=O)CC3)n1 ; pIC50 = 9.27

Entry COc1cc(Nc2nc(Nc3cccc4c3N(S(C)(=O)=O)CC4)c3cc[nH]c3n2)ccc1N1CCC(N2CCN(C)CC2)CC1 ; pIC50 = 9.12

Entry COc1cc(N2CCC(N3CCN(C)CC3)CC2)ccc1Nc1ncc(Cl)c(Nc2cc(C)cc3c2N(S(C)(=O)=O)CC3)n1 ; pIC50 = 6.80

Entry COc1cc(N2CCC3(CCN(C)CC3)CC2)c(Cl)cc1Nc1nc(Nc2cccc3c2N(S(C)(=O)=O)CC3)c2cc[nH]c2n1 ; pIC50 = 8.77

Entry CCc1cc(Nc2ncc(Cl)c(Nc3cccc4c3N(S(C)(=O)=O)CC4)n2)c(OC)cc1N1CCC(N2CCN(C)CC2)CC1 ; pIC50 = 9.29

Entry CCN1CCN(C2CCN(c3ccc(Nc4nc(Nc5ccc(F)c6c5N(S(C)(=O)=O)CC65CCC5)c5cc[nH]c5n4)cc3F)CC2)CC1 ; pIC50 = 7.43

Entry COc1cc(N2CCC(N3CCN(C)CC3)CC2)ccc1Nc1ncc(Cl)c(Nc2cccc3c2N(S(C)(=O)=O)CC3)n1 ; pIC50 = 9.70

Entry COc1cc(N2CCC(N3CCN(C)CC3)CC2)ccc1Nc1ncc(C)c(Nc2cccc3c2N(S(C)(=O)=O)CC3)n1 ; pIC50 = 9.85

Entry COc1cc(N2CCC(N3CCN(C)CC3)CC2)ccc1Nc1ncc(Cl)c(Nc2cccc3c2N(S(=O)(=O)CC2CC(F)(F)C2)CC3)n1 ; pIC50 = 7.42

Entry COc1cc(N2CCC(N3CCN(C)CC3)CC2)ccc1Nc1ncc(Cl)c(Nc2ccc(Br)c3c2N(S(C)(=O)=O)CC3)n1 ; pIC50 = 9.44

Entry COc1cc(N2CCC(N3CCN(C)CC3)CC2)ccc1Nc1ncc(Cl)c(Nc2cccc3c2N(C(=O)N(C)C)CC3)n1 ; pIC50 = 5.66

Entry COc1cc(N2CCC(N3CCN(C)CC3)CC2)ccc1Nc1nc2c(c(Nc3cccc4c3N(S(C)(=O)=O)CC4)n1)CCC2 ; pIC50 = 6.88
